Test system: SF-539 CNS
testDescription: NCI-60 one-dose screen, 48 h
appliedConditions: 10 µM unless noted
The panel holds about 83,000 compounds, 20% with a hit somewhere; the sample as a whole holds those more often. Calls of active or inactive are those of the source. How the source made its calls: active means growth percent below 10; inactive means the rest.
Outcome codes: active, inactive

compound	cat
CC1=C2[C@@H](CC1)[C@]1(C)O[C@@](C3CCNCC3)(C[C@H]1OC(=O)CO)[C@H]2OC(=O)/C=C/c1ccccc1	inactive
COc1cc(/C=C/C(=O)c2cccc(-n3cc(-c4ccc(Cl)cc4)[nH]c3=O)c2)ccc1O	inactive
N#Cc1c(-c2ccc(Cl)cc2)nc(NN=Cc2ccc[nH]2)nc1N1CCOCC1	inactive
Cc1ccc2c(c1)nc(C)n2-c1ncnc2c1CC(C)c1cc(O)ccc1N2C (stereo not drawn)	inactive
COc1ccc2c(c1)c(-c1nc(-c3ccc4ccccc4c3)cs1)cn2C	inactive
CCCN(CCSSCCNc1nc(N(C)O)nc(N(C)O)n1)c1nc(N(C)O)nc(N(C)O)n1	inactive
Nc1ncccc1O	inactive
CC1=Nc2cnc(Nc3ccc(N4CCCCC4)cc3)nc2Nc2ccccc21	inactive
Cc1cc(=O)oc2cc(Oc3nc(Br)cn4c(Br)cnc34)ccc12	inactive
Cc1ncc(C(=O)Nc2ccc(CN3CCN(C)CC3)c(C(F)(F)F)c2)cc1C#Cc1cnc(N)c2ccc(C#N)cc12	active
COc1cc(-c2ccc(-c3ccc(C(=N)N)cc3)s2)cc(OC)c1OC	inactive
CCCCO[C@@H]1C=C2[C@H]3CC(C)(C)C(=O)C[C@]3(C(=O)O[C@@H]3O[C@H](CO[C@@H]4O[C@H](CO)[C@@H](OC5OC(C)C(O)C(O)C5O)[C@H](O)[C@H]4O)[C@@H](O)[C@H](O)[C@H]3O)CC[C@@]2(C)[C@]2(C)CC[C@H]3C(C)(C)C(=O)CC[C@]3(C)[C@@H]12 (stereo partly drawn)	inactive
C[C@H](c1nc2ccc(C#N)cc2[nH]1)[C@H]1CC[C@H]2[C@@H]3CCC4=CC(=O)CC[C@]4(C)[C@H]3CC[C@]12C	inactive
COC1C(O)CC(OC2CC(OC3CC(O[C@@H]4C(=O)c5c(cc6cc(OC7CC(OC8CC(O)C(O)C(C)O8)C(O)C(C)O7)c(C)c(O)c6c5O)CC4[C@H](OC)C(=O)C(C)=O)OC(C)C3O)OC(C)C2O)OC1C (stereo partly drawn)	active
CCn1cc(C(=O)O)c(=O)c2cc(F)c(N3CCN(CC(=O)Nc4ccccc4)C(C)C3)c(F)c21 (stereo not drawn)	inactive
C=C1C(=O)O[C@H]2[C@H]1CC/C(COC(=O)/C=C\C(=O)NCc1ccc(Cn3c(=O)sn(CCCCl)c3=O)cc1)=C\CC[C@@]1(C)O[C@@H]21	inactive
COc1ccc(/C=C(\C(=O)NCc2cccnc2)S(=O)(=O)c2ccccc2)cc1OC	inactive
COC(=O)c1c2c(c(C)[n+]([O-])c1C)C(=O)C(NCc1ccccc1)=CC2=O	active
CCOC(=O)c1[nH]cc2c1CCc1sc(Nc3ccccn3)nc1-2	inactive
C/C(Cc1ccc(Cl)cc1)=C(\c1ccc(OCCN2CCCCCC2)cc1)c1ccc(OC(=O)c2ccccc2)cc1	inactive
CN(C)CCCC1(c2ccc(F)cc2)OCc2cc(-c3csc4ccccc34)ccc21 (stereo not drawn)	active
CNCCCNc1nc2ccccc2c2c(=O)c3cc(Cl)ccc3sc12	inactive
CC(C)=CC(=O)N[C@H]1CC[C@]2(C)C3CC[C@]4(C)C(C(C)N(C)C)=CCC4C3CCC2[C@H]1O (stereo partly drawn)	active
C=C(C)[C@@H]1CC[C@]2(COC3CCCCO3)CC[C@]3(C)[C@H](CC[C@@H]4[C@@]5(C)C=C(C=O)C(=O)C(C)(C)[C@@H]5CC[C@]43C)[C@@H]12 (stereo partly drawn)	active
CC(O)Cc1c[nH]c(=O)[nH]c1=O (stereo not drawn)	inactive
CN(C)c1ccc(/C=N\NC(=O)c2ccc3nc(-c4ccc(Cl)cc4)[nH]c3c2)cc1	inactive
C=CC(=O)Nc1cccc(Oc2nccc(Nc3nnc(-c4ccc(Br)cc4)s3)n2)c1	inactive
O=C(/C=C/c1cn(-c2ccccc2)nc1-c1ccccc1)CCC(=O)NO	inactive

----------
Listing of recorded growth by entry.
Test system: COLO 205 colon
testDescription: NCI-60 one-dose screen, 48 h (100 = growth as untreated, 0 = no growth, -100 = all killed)
appliedConditions: 10 µM unless noted
About 83,000 compounds went through this panel and 20% of them were active in at least one assay; those are over-represented in the sample as a whole.
valueKind: growth (%)

> print(dat)
                                   compound  unitspec  recordedmeasurement
1       Nc1nc2ccccc2c2c(=O)c3cc(Cl)ccc3sc12         %                  114
2  CCCCCCCCCCCCCCCCCCOc1ccccc1CC(=O)NCC[N+](C)(C)C         %                -85.2
3  O=S(Nc1ccccc1)c1ccc(Cl)cc1 (stereo not given)         %                  102
4  CN(C)Cc1ccc(NC(=O)c2cncc(C#Cc3cnc(N)c4ncccc34)c2)cc1C(F)(F)F         %                 44.6
5  COc1cc(OC)c2c(=O)c3c(CC=C(C)C)cc(OC)c(O)c3oc2c1         %                  111

----------
Tested on: COLO 205 colon
testDescription: NCI-60 one-dose screen, 48 h
appliedConditions: 10 µM unless noted
The panel holds about 83,000 compounds, 20% with a hit somewhere; the sample as a whole holds those more often. Calls of active or inactive are those of the source. How the source made its calls: active means growth percent below 10; inactive means the rest.
Outcome codes: active, inactive

> print(dat)
                                    molecule  targetorsystem       cat
 1  Fc1ccc2[nH]cc(-c3nc(-c4c[nH]c5c(Cl)nccc45)cs3)c2c1  COLO 205 colon  inactive
 2  CNC(=O)Nc1ccc(-c2ccc3ncnc(Nc4cccc(Cl)c4)c3c2)cc1  COLO 205 colon  inactive
 3  Fc1cc2[nH]ncc2c2c3c(c(-c4cn[nH]c4C(F)(F)F)nc12)CCCC3  COLO 205 colon    active
 4  COc1cc2c3c(c4c5ccccc5[nH]c4c2c(OC)c1OC)C(=O)N(CCN1CCCCC1)C3=O  COLO 205 colon  inactive
 5  C=CCn1cc(-c2nc3ccccc3s2)c2cc(-c3ccc4c5c(cccc35)C(=O)N(CCO)C4=O)ccc21  COLO 205 colon  inactive
 6             CC1=C(Cl)C(=O)c2cc(C)ccc2C1=O  COLO 205 colon  inactive
 7      CN(C)CCn1c(=O)c2ccccc2n2nc3ccccc3c12  COLO 205 colon  inactive
 8  Cc1nn(-c2ccc([N+](=O)[O-])cc2)c2ncnc(N/N=C/c3ccccc3O)c12  COLO 205 colon    active
 9  COc1cc2c(c(OC)c1OC)C(=O)CC(c1cccc(C(=O)Nc3ccc(C#N)cc3)c1)O2 (stereo not given)  COLO 205 colon  inactive
10  Cc1oc(-c2ccc(Cl)cc2)nc1C1=NN(C(=O)c2ccncc2)C(c2ccccc2)C1 (stereo not given)  COLO 205 colon  inactive

----------
Tested on: EKVX NSCLC
testDescription: NCI-60 one-dose screen, 48 h (100 = growth as untreated, 0 = no growth, -100 = all killed)
appliedConditions: 10 µM unless noted
Method: Growth inhibition of the EKVX human Non-Small Cell Lung tumor cell line is measured as a screen for anti-cancer activity. Cells are grown in 96 well plates and exposed to the test compound for 48 hours. Compounds are tested at a single concentration, which is 10^-5 M for most compounds. The reported endpoint is percent growth (GI% or GIPRCNT), where numbers from 0 - 100% represent growth inhibition, and numbers from -100% - 0 represent cell death. […]
The panel holds about 83,000 compounds, 20% with a hit somewhere; the sample as a whole holds those more often.
Listing of recorded growth by entry.
valueKind: growth (%)

> print(dat)
                                   compound  valuekind  unitspec  recordedmeasurement
1             CC1=C(Cl)C(=O)c2cc(C)ccc2C1=O     growth         %                 94.2
2  C=C1C(=O)O[C@H]2[C@H]1CC/C(COC(=O)/C=C\C(=O)NCc1ccc(Cn3c(=O)sn(CCCCl)c3=O)cc1)=C\CC[C@@]1(C)O[C@@H]21     growth         %                 94.1
3  N#CC1=C(N)Oc2c(sc3c(F)cccc23)C1c1ccc([N+](=O)[O-])cc1 (stereo not given)     growth         %                -2.24
4  CCOC(=O)C1=C(c2ccccc2)N=C2N(c3ccccc3)N=C(C(C)=O)N2C1c1ccc(F)cc1 (stereo not given)     growth         %                   97
5  COC(=O)[C@@]12CC=C(C)[C@]3(C[C@H](c4ccoc4)OC3=O)[C@H]1C=C[C@@H](O)[C@@]2(O)C(=O)OC     growth         %                 94.7
